System: HEK-293T
Experiment: Incucyte cell viability with HEK293T; also: unitless GR value; below 1 slowed growth and below 0 cell loss
Assay type: toxicity, cell-based
Conditions: human, 12 h, 10 µM, compound concentration 10 uM, replicate number 1, timepoint 12 hours
Everything with Growth Rate lower than 0.6 is No; everything else, including exactly 0.6, is Yes.

Could you please find out whether CS(=O)(=O)c1ccc(C(=O)Nc2ccc(Cl)c(-c3ccccn3)c2)c(Cl)c1 [VISMODEGIB] has Growth Rate that meets 0.6 or exceeds it?
Yes

Identify whether the reported Growth Rate of the following compound is 0.6 or greater: `CCOC(=O)Nc1cc(-c2ccc(C)c(NS(C)(=O)=O)c2)nn2c(C)nnc12`
Yes

Could you verify whether the entry `Cc1cc(CN)cc(C)c1-c1ncn(C)c1-c1cncn1C` shows Growth Rate of no less than 0.6?
Yes

Reported Growth Rate at or above 0.6? `CN(C)C(=O)Cn1cc(-c2ccc(-c3cncc4ccccc34)cc2)cn1`
Yes

Entry `Cc1ccccc1C#Cc1ccc(CCC(=O)O)cc1` : is its Growth Rate no less than 0.6?
Yes

Could you tell me if the measured Growth Rate of `O=C(Nc1cc(C(F)(F)F)ccc1N1CCN(Cc2ccccn2)CC1)c1ccc(-c2ccncc2)o1` reaches 0.6 or more?
No

Does `O=C(O)CCC/C=C\C[C@H]1C(=O)C[C@@H](O)[C@@H]1/C=C/[C@@H](O)CCc1ccccc1` have a reported Growth Rate of at least 0.6?
Yes

Check this compound for Growth Rate at or above 0.6: CC(C)Oc1ccc(-c2nc(-c3cccc4c3CC[C@@H]4NCCO)no2)cc1C#N [OZANIMOD]
No

Form field: Growth Rate at least 0.6? Entry: `CN(c1ncccc1CNc1ccnc(-c2cc3cc(Cl)ccc3[nH]2)n1)S(C)(=O)=O`
No

Determine whether measured Growth Rate meets or exceeds 0.6 for `CN(c1ncccc1CNc1ccnc(-c2nc3c(F)c(Cl)ccc3[nH]2)n1)S(C)(=O)=O`
Yes

Tell me whether Growth Rate is at least 0.6 here: CC(=O)O[C@H]1C(=O)[C@@]2(C)[C@H]([C@H](OC(=O)c3ccccc3)[C@]3(O)C[C@H](OC(=O)[C@H](O)[C@@H](NC(=O)c4ccccc4)c4ccccc4)C(C)=C1C3(C)C)[C@]1(OC(C)=O)CO[C@@H]1C[C@@H]2O [PACLITAXEL]
No

Hi team, for `Cl.O=C(O)c1cc(-c2ccc(C3CCNCC3)cc2)c2ccc(-c3ccc(C(F)(F)F)cc3)cc2c1` , is the recorded Growth Rate at or above 0.6?
Yes

I'd appreciate it if you could say whether COc1cc2nc(N3CCN(C(=O)c4ccco4)CC3)nc(N)c2cc1OC.Cl [PRAZOSIN HYDROCHLORIDE] has Growth Rate at least equal to 0.6.
Yes

Has `O=C1NC(NC23CC4CC(CC(C4)C2)C3)=N/C1=C\c1ccc2ncsc2c1` a recorded Growth Rate greater than or equal to 0.6?
No

Please indicate if the recorded Growth Rate for Br.Oc1cc2c(cc1O)C(c1ccccc1)CNCC2 (stereo unspecified) meets or exceeds 0.6.
Yes

* * *

System: HEK-293T
Assay: Incucyte cell viability with HEK293T; also: unitless GR value; below 1 slowed growth and below 0 cell loss
Format: toxicity, cell-based
Conditions: human, 24 h, 10 µM, compound concentration 10 uM, replicate number 2, timepoint 24 hours
measurement-kind: Growth Rate
Write the value as a bare number.

Record `Cn1cnc(-c2cc3nccc(Oc4ccc(NC(=S)NC(=O)Cc5ccccc5)cc4F)c3s2)c1` , field Growth Rate: 0.99

Record CCC(=O)NC[C@@H]1C[C@H]1c1cccc2c1CCO2 [TASIMELTEON] , field Growth Rate: 0.99

// Growth Rate value for Cl.Clc1cccc(Cl)c1NC1=NCCN1 [CLONIDINE HYDROCHLORIDE] : 0.63

Input `CCCCCCCCCCCCCCC[C@@H](O)[C@@H](N)COP(=O)(O)O` . Output Growth Rate: 0.74

Every entry's value here was drawn from ChEMBL document CHEMBL5058564.
